experimental-target: OGA (Homo sapiens)
Construct: endogenous in cells; host or cells: HEK293 cells inducible for P301L mutant human Tau (isoform 2N4R)
run-description: OGA cellular assay (ICC detection of O-GlcNAcylated proteins in HEK293 cells inducible for P301L mutant human Tau)
Format: cell-based
run-parameters: HEK293, HEK293 cells inducible for P301L mutant human Tau; maximum defined by Thiamet G at 200 uM
parameter-measured: Emax (%)
Write the answer as a number in %, unit excluded.

Examples with answers:
• COc1cc(CC2(C)CCN(C(C)c3ccc4c(n3)OCCO4)C2)cc(C)n1 (single isomer, unassigned) [Product 95] = 39
• Cc1cc(C[C@H]2CCN(C(C)c3cnc4c(c3)OCCN4)C2)cc(C)n1 (mixture of isomers) [Product 80] = 71
• Cc1cc(CO[C@@H]2CCN(C(C)c3ccc4c(n3)OCCO4)C2)cc(C)n1 (mixture of isomers) [Product 115] = 9

Look up and state reported Emax for Cc1cc(CO[C@H]2CCN(C(C)c3ccc4c(n3)OCCO4)C2)cc(C)n1 (stereo partly shown) [Product 49]
-5

Data provenance is patent US20210277015A1.
